Where do these numbers come from? They come from ChEMBL document CHEMBL1201862.

- Tested on: SF-268
- test: NCI tumour cell line growth inhibition, 48 h
Active and inactive are the calls of the source. Rule as the data show it: active = GI50 up to about 1.1 µM and inactive = higher.
Labels: 1.0 (active), 0.0 (inactive)

{"columns": ["compound", "assigned-category"],
 "data": [
  ["O=C(CC(=O)Nc1ccccc1Cl)NNC(Sc1ccccc1)c1cc(/N=N/c2ccc(Br)cc2)ccc1O (stereo not given)", 1.0],
  ["COC(=O)Nc1nc(=O)c2ccccc2[nH]1", 0.0],
  ["CC(=O)O[C@H]1CN(S(=O)(=O)c2ccc(C)cc2)C[C@@H]1C1CCCCC1", 0.0],
  ["O=[N+]([O-])/C=C/COCc1cc2c(cc1Br)OCO2", 0.0],
  ["CCCN(CCC)C(=O)Cc1c2n(c3ccccc13)Cc1ccccc1-2", 0.0]
]}

* * *

- Test system: IGROV-1
- test: NCI tumour cell line growth inhibition, 48 h
Active and inactive are the calls of the source. No stated cut-off is given here; in the data, active = GI50 up to about 1.1 µM and inactive = higher. Where a SMILES comes first, the peptide text is derived from it. The star is where a group is joined. X33 = O=C(c1ccc(-c2ccc(Cl)cc2Cl)o1)*
Classes used: active, inactive

{"columns": ["compound", "assigned-category"],
 "data": [
  ["CN(CCN(C)Cc1ccc(Cl)c(Cl)c1)CCN1CCCC1", "inactive"],
  ["COC(=O)CCCC(=O)/C(=N\\Nc1ccc(Cl)cc1)Nc1c(Cl)cccc1Cl", "inactive"],
  ["CN(C)CCCNc1ccc2nnn3c4ccc([N+](=O)[O-])cc4c(=O)c1c23", "inactive"],
  ["NCCCn1c2ccccc2c2c3c(c4c(c21)CCC(O)CC4)C(=O)NC3=O (centres undefined)", "inactive"],
  ["Cc1cc(=O)oc2c(CNC(C)C(=O)O)c(O)ccc12 (centres undefined)", "inactive"],
  ["C=CCCC(OCOCCOC)c1cc(C)c(O[Si](C)(C)C(C)(C)C)c(C)c1 (centres undefined)", "inactive"],
  ["CCCN(CCCCC(NC(C)=O)C(=O)NCc1ccccc1)C(=O)NC (centres undefined)", "inactive"],
  ["Cc1cc(NS(=O)(=O)c2ccc(NC(=O)c3cccc4c(NNc5ccc(S(N)(=O)=O)cc5)c5ccccc5nc34)cc2)no1", "inactive"],
  ["O=C1Nc2c(Cl)cccc2/C1=N/Nc1ccccc1[N+](=O)[O-]", "inactive"],
  ["COc1cc2cccc(/N=C\\c3cccc(OC)c3OC(C)C)c2cc1OC", "inactive"],
  ["CC(=O)O[C@H]1CN(S(=O)(=O)c2ccc(C)cc2)C[C@@H]1C1CCCCC1", "inactive"],
  ["Cc1nc2ccccc2nc1CC(=O)C(=O)Nc1ccc(Cl)cc1Cl", "inactive"],
  ["CCC(C)C(NC(=O)CNC(=O)C(Cc1ccccc1)NC(=O)C1CCCN1C(=O)c1ccc(-c2ccc(Cl)cc2Cl)o1)C(=O)OC (centres undefined) (X33-PFGI-OMe; configuration not given here)", "inactive"],
  ["O=c1cc(-c2ccccc2)oc2cc(OCCCOc3ccc4c(=O)cc(-c5ccccc5)oc4c3)ccc12", "inactive"],
  ["CCCCCCCCCCCCCCCCCCNc1ccn(C2OC(COP(=O)(O)OCC3OC(n4cc(C)c(=O)[nH]c4=O)CC3F)C(O)C2O)c(=O)n1 (centres undefined)", "inactive"],
  ["CC12CC(=O)NN=C1c1ccccc1C2 (centres undefined)", "inactive"],
  ["CC1=C(C(=O)OC(C)C)C(c2cccc([N+](=O)[O-])c2)C(C(=O)OC(CO[N+](=O)[O-])CO[N+](=O)[O-])=C(C)N1 (centres undefined)", "inactive"],
  ["Cc1c(-c2cnccn2)ssc1=S", "inactive"],
  ["CC(NC(=O)c1ccc(NP(=O)(OCc2ccc([N+](=O)[O-])o2)N(C)CCCCCl)cc1)c1ccc(OCC2CCCCC2)c(C(N)=O)c1 (centres undefined)", "inactive"],
  ["NC(=S)N/N=C(/CCN1CCCC1)CC(C1=C(O)C2=CCCCC2OC1=O)c1ccccc1 (centres undefined)", "inactive"],
  ["O=C(Cn1c(=O)oc2ccc(C(=O)c3ccccc3Cl)cc21)c1ccc([N+](=O)[O-])cc1", "inactive"],
  ["NC1N=C(c2ccc(Cl)cc2)C2=C(N1)c1ccccc1CC2 (centres undefined)", "inactive"],
  ["COc1ccc(C2c3cc4c(c(OC)c3CC3OCC(=O)C32)OCO4)cc1OC (centres undefined)", "active"],
  ["COc1cc(C=O)ccc1Oc1nnnn1-c1ccccc1", "inactive"],
  ["Cc1nc(N)nc(N)c1N1CCN(Cc2ccccc2)CC1", "inactive"],
  ["O/N=C1/C(=C/c2ccc(OCc3ccccc3)cc2)CCCC1C(NO)c1ccc(OCc2ccccc2)cc1 (centres undefined)", "inactive"],
  ["CC1OC(n2cc(F)c(=O)[nH]c2=O)C=CC1O (centres undefined)", "inactive"],
  ["CN(C)Cc1cc(/C(=C(\\C#N)c2ccccc2)c2ccc(O)cc2)ccc1O", "inactive"],
  ["Cc1cccc(/N=N/c2ccc(O)c(CN(C)C)c2)c1", "inactive"],
  ["Brc1ccc2c(-c3csc(-c4c[nH]c5cc(Br)ccc45)n3)c[nH]c2c1", "inactive"],
  ["Oc1ccc(CNCc2ccccc2)c2cccnc12", "active"],
  ["COc1ccc(/C(=N/O)C(c2ccc(OC)cc2)C2C(=O)Oc3ccccc32)cc1 (centres undefined)", "inactive"],
  ["CCO/N=[N+](\\[O-])N(CC)CC", "inactive"],
  ["N/C(=N\\N=C\\c1cc2ccccc2s1)c1cnccn1", "inactive"],
  ["COC(=O)C1=C(C(=O)OC)SC(=C2SCSC3=C2SC(C(=O)OC)=C(C(=O)OC)C32SC3=C(CCCC3)S2)S1", "inactive"],
  ["C=C1C(=O)O[C@H]2C1[C@H](OC(=O)/C(C)=C\\COC(C)=O)C[C@]1(CO1)[C@@H]1[C@H](O)[C@H]3O[C@@]3(C)[C@@H]12 (some centres undefined)", "inactive"],
  ["COc1cc([N+](=O)[O-])ccc1NC(=O)C(F)(F)F", "inactive"],
  ["Cn1cc(C(=O)C[n+]2ccccc2)c2ccccc21", "inactive"],
  ["c1ccc2cc(-c3cc(-c4cc(-c5ccc6ccccc6c5)on4)no3)ccc2c1", "inactive"]
]}

* * *

As shown below, each of these molecules has a reported GI50 value.
- System: A498
- test: NCI tumour cell line growth inhibition, 48 h
Active and inactive are the calls of the source. No stated cut-off is given here; in the data, active = GI50 up to about 1.1 µM and inactive = higher.

{"columns": ["molecule", "target-desc", "GI50"],
 "data": [
  ["CCOC(=O)n1c2ccccc2c2c(O)c(OC)c3c(c21)C(=O)NC3=O", "A498", "78.7 µM (inactive)"],
  ["CCO/N=[N+](\\[O-])N(CC)CC", "A498", "> 100 µM (inactive)"],
  ["CNN1C(=O)c2c(N)c(C#N)c(-c3ccccc3)c(-c3ccccc3)c2C1=O", "A498", "> 100 µM (inactive)"],
  ["CC(CO)(CBr)COC(=O)c1cc(Br)c(N)c(Br)c1 (stereo not given)", "A498", "62.2 µM (inactive)"],
  ["O=C(Nc1ccc(Cl)cc1)c1cc2c(cc1Cl)SC(NNCCO)=NS2(=O)=O", "A498", "17.6 µM (inactive)"],
  ["O=C(CCC1OCCO1)Nc1cc(NCc2ccccc2)ccc1OCc1ccccc1", "A498", "30.5 µM (inactive)"],
  ["COc1ccc(C(=O)N2CCc3c([nH]c4ccccc34)C2C(=O)O)o1 (stereo not given)", "A498", "> 10 µM (inactive)"],
  ["COC(=O)/C=C/c1cnc2c(c1)oc(=O)n2C", "A498", "> 100 µM (inactive)"],
  ["Cc1cn(C2CC(O)C(COC(=O)NCCC(F)(F)C(F)(F)C(F)(F)C(F)(F)F)O2)c(=O)[nH]c1=O (stereo not given)", "A498", "> 100 µM (inactive)"],
  ["O=C1C(c2ccccc2)=[N+]([O-])c2cc([N+](=O)[O-])ccc21", "A498", "27.6 µM (inactive)"]
]}

* * *

- System: NCI-H460
- test: NCI tumour cell line growth inhibition, 48 h
Calls of active or inactive are those of the source. Rule as the data show it: active = GI50 up to about 1.1 µM and inactive = higher.
outcome-measure: GI50

{"columns": ["compound", "outcome-measure", "recorded-result"],
 "data": [
  ["Cc1ccc(N(Cc2ccccc2)Cc2ccccc2)cc1", "GI50", "> 100 µM (inactive)"],
  ["Cc1nc2ccccc2nc1CC(=O)C(=O)Nc1ccc(Cl)cc1Cl", "GI50", "> 100 µM (inactive)"],
  ["O=C(CCC1OCCO1)Nc1cc(NCc2ccccc2)ccc1OCc1ccccc1", "GI50", "39.1 µM (inactive)"],
  ["Cc1[nH]c2ccccc2c1C(=O)CC1(O)C(=O)Nc2c(Cl)cc(Cl)cc21 (stereo not given)", "GI50", "48.9 µM (inactive)"],
  ["COc1cc2ccc1-c1cc(ccc1O)CC1c3cc4c(cc3CCN1C)Oc1c(OC)cc3c(c1O4)C(C2)N(C)CC3 (stereo not given)", "GI50", "1.75 µM (inactive)"],
  ["O=C1C(c2ccccc2)=[N+]([O-])c2cc([N+](=O)[O-])ccc21", "GI50", "24.7 µM (inactive)"],
  ["O=S1(=O)c2ccccc2N2C(c3ccccc3)=NOC2(c2ccccc2)CC1c1ccc(Br)cc1 (stereo not given)", "GI50", "> 100 µM (inactive)"],
  ["NCCCn1c2ccccc2c2c3c(c4c(c21)CCC(O)CC4)C(=O)NC3=O (stereo not given)", "GI50", "2.06 µM (inactive)"],
  ["N#CC(c1nc2ccccc2nc1Cl)S(=O)(=O)c1ccccc1 (stereo not given)", "GI50", "> 100 µM (inactive)"],
  ["CCOC(=O)C1(Cc2ccc(C)cc2)Cc2ccc(C)cc2C1=O (stereo not given)", "GI50", "27.9 µM (inactive)"]
]}
